FYI, the data here is from paper PMC11704051.

# experimentalDetails: Plasma pharmacokinetics of AG-270/S095033
# Assay type: in vivo, human
# conditionDescription: human, plasma, oral, Geometric mean Cmax, range across the dosing cohorts, C1D15
testReadout: Cmax

# lookup: Cmax of COc1ccc(-c2c(Nc3ccccn3)[nH]c3c(C4=CCCCC4)c(-c4ccccc4)nn3c2=O)cc1
1710 to 13600 ng/mL

----------
# experimentalDetails: Plasma pharmacokinetics of AG-270/S095033
# Assay type: in vivo, human
# conditionDescription: human, plasma, oral, Median terminal half-life (t½), range across the tested doses
testReadout: half-life

Form field: reported half-life of COc1ccc(-c2c(Nc3ccccn3)[nH]c3c(C4=CCCCC4)c(-c4ccccc4)nn3c2=O)cc1
16 to 38 h
